assay remarks: The drug is tested on WLS-170 corresponding to human gut metagenome with ENA study accession number: PRJEB37062 and ENA sample accession number: ERS12561762 for biotransformation under anaerobic condition. The drug concentrations were measured over 9 timepoints collected between 0 and 24 hours of incubation by liquid-chromatography-coupled mass spectrometry (LC–MS); note: call rule not given here
assay conditions: 2 µM
assay endpoint: Bacterial Biotransformation

Check out these entries, answers already filled in.
| compound | assay endpoint | result |
| --- | --- | --- |
| CC(=O)OCC(=O)[C@@]12N=C(C)O[C@@H]1C[C@H]1[C@@H]3CCC4=CC(=O)C=C[C@]4(C)[C@H]3[C@@H](O)C[C@@]12C | Bacterial Biotransformation | Compound metabolized |
| COc1ccccc1OCC(O)CN1CCN(CC(=O)Nc2c(C)cccc2C)CC1 (stereo not drawn) | Bacterial Biotransformation | Compound NOT metabolized |
| CCC1(c2ccc(N)cc2)CCC(=O)NC1=O (stereo not drawn) [AMINOGLUTETHIMIDE] | Bacterial Biotransformation | Compound NOT metabolized |
| CNCCC(Oc1ccc(C(F)(F)F)cc1)c1ccccc1 (stereo not drawn) | Bacterial Biotransformation | Compound NOT metabolized |
| CN1CCc2cccc3c2[C@H]1Cc1ccc(O)c(O)c1-3 | Bacterial Biotransformation | Compound NOT metabolized |
| Cc1ccccc1N1C(=O)c2cc(S(N)(=O)=O)c(Cl)cc2NC1C (stereo not drawn) | Bacterial Biotransformation | Compound NOT metabolized |
| CN(C)CCC=C1c2ccccc2C=Cc2ccccc21 | Bacterial Biotransformation | Compound metabolized |
| CN(C)C(=O)C(CCN1CCC(O)(c2ccc(Cl)cc2)CC1)(c1ccccc1)c1ccccc1 [LOPERAMIDE] | Bacterial Biotransformation | Compound metabolized |

Prompt: Could you share which Bacterial Biotransformation value was measured for CC(C)NCC(O)COc1ccc(COCCOC(C)C)cc1.CC(C)NCC(O)COc1ccc(COCCOC(C)C)cc1.O=C(O)/C=C/C(=O)O (stereo not drawn) [BISOPROLOL FUMARATE] ?
Completion: Compound metabolized

Prompt: Next record, please: OC(CCN1CCCCC1)(c1ccccc1)C1CCCCC1 (stereo not drawn)
Completion: Compound metabolized

Prompt: Next record, please: `CN/C(=N/CCSCc1nc[nH]c1C)NC#N`
Completion: Compound metabolized

Prompt: Next record, please: Br.CN(C)CCCC1(c2ccc(F)cc2)OCc2cc(C#N)ccc21 (stereo not drawn) [CITALOPRAM HYDROBROMIDE]
Completion: Compound metabolized

Prompt: Next record, please: `CCCc1nc(C(C)(C)O)c(C(=O)OCc2oc(=O)oc2C)n1Cc1ccc(-c2ccccc2-c2nnn[nH]2)cc1`
Completion: Compound metabolized

Prompt: Next record, please: COc1ccc2[nH]c([S+]([O-])Cc3ncc(C)c(OC)c3C)nc2c1 (stereo not drawn)
Completion: Compound metabolized

Prompt: Next record, please: `Cc1nc2n(c(=O)c1CCN1CCC(c3noc4cc(F)ccc34)CC1)CCCC2`
Completion: Compound metabolized

Prompt: Next record, please: `Nc1nc2ccc(OC(F)(F)F)cc2s1`
Completion: Compound metabolized

Prompt: Next record, please: `COc1c2occc2cc2ccc(=O)oc12`
Completion: Compound metabolized

Prompt: Next record, please: CC(Oc1c(Cl)cccc1Cl)C1=NCCN1 (stereo not drawn)
Completion: Compound metabolized
